- Procedure details: BET inhibitor-based combinations targeting novel dependencies in MECOM-rearranged (r) AML: SET-2 cell line (AID 2202231); also: potency is read from the fitted curve at half-maximal effect; nearly all actives have a fitted effect of over 35% in size
- Experimental context: SET-2 AML cells viability, CellTiter-Glo luminescence, 48 h
Inconclusive results are not listed. Calls of active or inactive are those of the source. Calls follow the shape of the dose curve; as a rule, active = well fitted inhibition curve with a large enough effect; inconclusive = small, poorly fitted or top-dose-only effect; inactive = no such curve, though single readings can be large or run the other way.
Recorded endpoint: Potency

Consider the reported Potency for these compounds:
smiles_code=COc1cc(N2CCN(C)CC2)ccc1Nc1ncc2c(n1)N(C)c1ccccc1C(=O)N2C observed_measurement="16.6 µM (active)"
smiles_code=CC(C)c1ccc(Cn2ccc3c4c(N)nc(NC5CC5)nc4ccc32)cc1 observed_measurement="0.468 µM (active)"
smiles_code=O=C(N[C@@H](c1ccccc1)[C@@H]1CCCCN1)c1cccc(C(F)(F)F)c1Cl observed_measurement="1.18 µM (active)"
smiles_code=Cc1ccc(NS(=O)(=O)c2cccc(C#N)c2)c2[nH]cc(C#N)c12 observed_measurement="14.8 µM (active)"

Then this compound:
## Input Looking for the measured Potency of CNS(=O)(=O)Nc1nccc(Cc2c(C)c3ccc(Oc4ncccn4)cc3oc2=O)c1F , can you help?
## Output 3.72 µM (active)
